The values you see were collected from ChEMBL document CHEMBL1146073.

Molecular target: GABA-A receptor; alpha-5/beta-3/gamma-2 (Homo sapiens, UniProt P18507+P28472+P31644)
Sequence (P18507 whole entry): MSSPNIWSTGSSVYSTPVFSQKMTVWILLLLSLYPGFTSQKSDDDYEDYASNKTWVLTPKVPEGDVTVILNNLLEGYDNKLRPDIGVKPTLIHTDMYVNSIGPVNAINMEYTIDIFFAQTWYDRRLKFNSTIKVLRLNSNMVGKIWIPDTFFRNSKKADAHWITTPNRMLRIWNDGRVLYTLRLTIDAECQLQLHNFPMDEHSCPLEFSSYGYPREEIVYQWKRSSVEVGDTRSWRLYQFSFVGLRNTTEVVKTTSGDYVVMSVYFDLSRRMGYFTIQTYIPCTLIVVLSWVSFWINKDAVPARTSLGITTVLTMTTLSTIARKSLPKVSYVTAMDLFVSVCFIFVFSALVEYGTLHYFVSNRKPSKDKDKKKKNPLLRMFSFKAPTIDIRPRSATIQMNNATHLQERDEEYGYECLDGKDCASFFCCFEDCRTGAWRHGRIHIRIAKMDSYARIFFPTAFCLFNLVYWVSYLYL
Sequence (P28472 whole entry): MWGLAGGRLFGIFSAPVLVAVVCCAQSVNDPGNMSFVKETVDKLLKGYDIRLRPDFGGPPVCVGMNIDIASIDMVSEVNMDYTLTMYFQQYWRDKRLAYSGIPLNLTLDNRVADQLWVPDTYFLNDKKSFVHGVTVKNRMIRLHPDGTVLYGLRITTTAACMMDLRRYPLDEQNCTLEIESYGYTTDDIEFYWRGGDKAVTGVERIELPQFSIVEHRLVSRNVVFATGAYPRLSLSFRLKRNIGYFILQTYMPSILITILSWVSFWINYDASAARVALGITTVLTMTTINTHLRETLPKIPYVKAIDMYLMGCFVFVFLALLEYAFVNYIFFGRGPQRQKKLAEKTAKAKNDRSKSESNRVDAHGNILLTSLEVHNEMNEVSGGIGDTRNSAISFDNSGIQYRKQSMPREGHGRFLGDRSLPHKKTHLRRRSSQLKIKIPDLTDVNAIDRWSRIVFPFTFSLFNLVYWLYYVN
Sequence (P31644 whole entry): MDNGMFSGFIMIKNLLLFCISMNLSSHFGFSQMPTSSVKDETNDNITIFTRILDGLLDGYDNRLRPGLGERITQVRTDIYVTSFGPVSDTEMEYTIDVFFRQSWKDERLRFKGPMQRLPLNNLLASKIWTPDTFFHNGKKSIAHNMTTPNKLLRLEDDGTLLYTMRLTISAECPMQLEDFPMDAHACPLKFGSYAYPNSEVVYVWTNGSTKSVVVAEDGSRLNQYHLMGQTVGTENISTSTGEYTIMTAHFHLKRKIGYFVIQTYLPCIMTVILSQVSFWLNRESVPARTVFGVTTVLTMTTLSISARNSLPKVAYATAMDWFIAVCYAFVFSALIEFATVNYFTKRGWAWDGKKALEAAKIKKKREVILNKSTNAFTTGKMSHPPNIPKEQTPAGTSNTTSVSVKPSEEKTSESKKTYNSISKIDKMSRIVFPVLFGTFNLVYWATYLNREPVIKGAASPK
Assay: Displacement of [3H]Ro-151788 from recombinant human GABA-Aalpha5 receptor plus beta3gamma2
pKi: −log10 of the molar value.
property-label: pKi

// known answers, use as guide
Query block: Could you share which pKi value was measured for Fc1ccc(-c2cc(-c3ccc(F)c(-c4ncc(F)cc4F)c3)cnn2)c(F)c1 ?
Result block: 8.85

Query block: Ok, now Fc1cnc(-c2cc(-c3cnnc(-c4c(F)cc(F)cc4F)c3)ccc2F)c(F)c1
Result block: 8.29

Query block: Ok, now Fc1ccc(-c2cc(-c3ccc(F)c(-c4ncc(F)cc4F)c3)cnn2)cc1
Result block: 8.42

P = Fc1cnc(-c2cc(-c3ccc(F)c(-c4ncccc4F)c3)cnn2)c(F)c1
Q = Fc1ccc(-c2cnnc(-c3c(F)cccc3F)c2)cc1-c1ncccc1F
Query block: Kindly compare P with Q and tell me which has the lower pKi figure. Your answer should be the label of the entry you select.
Result block: P
(P: 8.55, Q: 9.52)

I = Fc1cnc(-c2cc(-c3cnnc(-c4ccncc4F)c3)ccc2F)c(F)c1
II = Fc1ccccc1-c1cc(-c2ccc(F)c(-c3ncccc3F)c2)cnn1
III = Fc1ccc(-c2cnnc(-c3c(F)cncc3F)c2)cc1-c1ncccc1F
IV = Fc1cnc(-c2cc(-c3ccc(F)c(-c4ncc(F)cc4F)c3)cnn2)c(F)c1
Query block: # desc sort on pKi across 4 compounds # output: labels, in the requested order
Result block: II, III, I, IV
